# credit: the supplement of paper PMC11451515

Item-by-item account of cell viability
# Test system: SEM cells
# assay-summary: cell viability relative to DMSO control; higher = less cytotoxic
# reported-conditions: HPLM + 10% dialyzed FBS; 48 h; 0.00234 µM
The reply should be a number in %, with the unit left off.

What does the data say about its cell viability? Entry: CC(C)C1CCC(C(=O)N[C@H](Cc2ccccc2)C(=O)O)CC1 (some centres not stated)
93.8

Likewise for "Clc2cccc(Cl)c2\N=C1/NCCN1" ?
98.6

Likewise for "CC/C=C\C[C@H]1C(=O)CC[C@@H]1CC(=O)OC" ?
118

Likewise for "CC1(COc2ccc3c(c2)ncn3-c2ccc3cccc(N4CCC(N)CC4)c3n2)COC1" ?
96.7

----------
# System: P12-Ichikawa
# assay-summary: cell viability relative to DMSO control; higher = less cytotoxic
# reported-conditions: RPMI 5 mM glucose + 10% FBS; 48 h; 0.00702 µM
Item-by-item account of cell viability
The reply should be a number in %, with the unit left off.

C=CC(=O)Nc1cc2c(Nc3ccc(F)c(Cl)c3)ncnc2cc1C#CC(C)(C)N1CCN(C)CC1; 101
CN1C(=O)/C(=C(NC2=CC=C(I)C=C2F)\C3=C1\N=C/N(C[C@@H](O)CO)C3=O)F; 83.6
COC1=CC=C(C=C1)/C2=C(O)/C(=O)C3=C(O)C=C(O)C(=C3O2)CC=C(C)C; 105

Now for the molecule whose cell viability we want.
What does the data say about its cell viability? Entry: "COc1ccc(/C=C\c2cc(OC)c(OC)c(OC)c2)cc1NC(=O)[C@H](N)CO"
125

----------
# Tested on: P12-Ichikawa
# assay-summary: cell viability relative to DMSO control; higher = less cytotoxic
# reported-conditions: HPLM + 10% dialyzed FBS; 48 h; 0.0211 µM
measured-endpoint: cell viability (%)
The reply should be a number in %, with the unit left off.

COc1cc(NCc2ccc3nc(N)nc(N)c3c2C)cc(OC)c1OC; 101
O=C(O)c1cc(O)c2c(c1)C(=O)c1cccc(O)c1C2=O; 117
Cc1c(N)nc([C@H](CC(N)=O)NC[C@@H](N)C(N)=O)nc1C(=O)N[C@H](C(=O)N[C@@H](C)[C@H](O)[C@@H](C)C(=O)N[C@@H](C(=O)NCCc1nc(-c2nc(C(=O)NCCC[S+](C)C)cs2)cs1)[C@@H](C)O)C(O[C@H]1O[C@H](CO)[C@H](O)[C@@H](O)[C@H]1O[C@H]1O[C@H](CO)[C@@H](O)[C@H](OC(N)=O)[C@@H]1O)c1c[nH]cn1 (some centres not stated); 108

Recorded cell viability for CCC(C)CCCCC(=O)N[C@@H](CCN)C(=O)NC(C(=O)N[C@H](CCN)C(=O)N[C@@H]1CCNC(=O)C([C@@H](C)O)NC(=O)[C@@H](CCN)NC(=O)[C@@H](CCN)NC(=O)[C@@H](CC(C)C)NC(=O)[C@H](Cc2ccccc2)NC(=O)[C@H](CCN)NC1=O)[C@@H](C)O (some centres not stated) with P12-Ichikawa, please?
117

Likewise for "CCc1ccc(OCc2ccccc2C(=O)Nc2ccc3nc(C)cc(N)c3c2)cc1" ?
114

Likewise for "CCOC(=O)N1CCN(/[N+]([O-])=N/Oc2cc(O/N=[N+](\[O-])N3CCN(C(=O)OCC)CC3)c([N+](=O)[O-])cc2[N+](=O)[O-])CC1" ?
123

Likewise for "Nc1ccc(C(=O)c2cc3c(ccc4ccccc43)[nH]2)cc1" ?
118

----------
Item-by-item account of cell viability
# Tested on: P12-Ichikawa
# assay-summary: cell viability relative to DMSO control; higher = less cytotoxic
# reported-conditions: HPLM + 10% dialyzed FBS; 48 h; 0.0211 µM
The reply should be a number in %, with the unit left off.

// known answers, use as guide
C[C@@H]1CC[C@@]2(CC[C@]3(C)\C(=C/C[C@@H]4[C@@]5(C)CC[C@H](O)C(C)(C)[C@@H]5CC[C@@]34C)[C@@H]2[C@H]1C)C(O)=O; 109
Cc1ccc(C(=O)Nc2cccc(C(F)(F)F)c2)cc1Nc1nc(-c2cccnc2)nc2c1cnn2C; 89.5
C=C(c1ccc(C(=O)O)cc1)c1cc2c(cc1C)C(C)(C)CCC2(C)C; 121
CN(CCOc1ccc(CC2SC(=O)NC2=O)cc1)c1ccccn1 (stereo not drawn); 121
OC[C@H]1O[C@H](C[C@@H]1O)N2/C=C(C(=O)NC2=O)/C(F)(F)F; 110

What does the data say about its cell viability? Entry: "CCCCCCNC(=O)N1\C=C(F)/C(=O)NC1=O"
127

----------
# Tested on: NOMO1
# assay-summary: cell viability relative to DMSO control; higher = less cytotoxic
# reported-conditions: HPLM + 10% dialyzed FBS; 48 h; 15.4 µM
Would you mind sorting the entries by cell viability according to these classes? small value = under 60%, mid value = from 60% up to 70%, large value = 70% and over

Please review the following examples before continuing.
Cc1ccc(C(=O)Nc2cccc(C(F)(F)F)c2)cc1Nc1nc(-c2cccnc2)nc2c1cnn2C; mid value
CO[C@@H](C(=O)N1Cc2[nH]nc(NC(=O)c3ccc(N4CCN(C)CC4)cc3)c2C1)c1ccccc1; mid value
N[S+](=O)([O-])c1ccc(Nc2nc(OCC3CCCCC3)c3[nH]cnc3n2)cc1; small value
Cc1ccc2nc(NCCN)c3ncc(C)n3c2c1; large value
Cc1c(N)nc([C@H](CC(N)=O)NC[C@@H](N)C(N)=O)nc1C(=O)N[C@H](C(=O)N[C@@H](C)[C@H](O)[C@@H](C)C(=O)N[C@@H](C(=O)NCCc1nc(-c2nc(C(=O)NCCC[S+](C)C)cs2)cs1)[C@@H](C)O)C(O[C@H]1O[C@H](CO)[C@H](O)[C@@H](O)[C@H]1O[C@H]1O[C@H](CO)[C@@H](O)[C@H](OC(N)=O)[C@@H]1O)c1c[nH]cn1 (stereo partly drawn); small value
COc1ccc(CCC(=O)c2c(O)cc(O[C@@H]3O[C@H](CO)[C@@H](O)[C@H](O)[C@H]3O[C@@H]3O[C@@H](C)[C@H](O)[C@@H](O)[C@H]3O)cc2O)cc1O; small value

Returns: class label. Input: "O=C(O)c1ccc(O)c2ncc(N3CCOCC3)cc12"
large value

Likewise for "CC[C@H]1OC(=O)[C@H](C)[C@@H](O[C@H]2C[C@@](C)(OC)[C@@H](O)[C@H](C)O2)[C@H](C)[C@@H](O[C@@H]2O[C@H](C)C[C@H](N(C)C)[C@H]2O)[C@](C)(OC)C[C@@H](C)C(=O)[C@H](C)[C@@H](O)[C@]1(C)O" ?
large value

Likewise for "Cc1cc(Nc2ncc3c(n2)N(C)C(=O)N(c2cc(NC(=O)c4cccc(C(F)(F)F)c4)ccc2C)C3)n(C)n1" ?
small value

Likewise for "CCn1nnc2c(N3CCOCC3)nc(-c3ccc(NC(=O)Nc4ccc(C(=O)N5CCN(C)CC5)cc4)cc3)nc21" ?
small value

Likewise for "CCCCc1ccc2[nH]c(NC(=O)OC)nc2c1" ?
small value

Likewise for CO[C@H]1CCC(O[C@H]2C[C@H]([C@]3(C)CC[C@]4(C[C@H](O)[C@@H](C)[C@@H]([C@@H](C)/C=C(\C)C(=O)[C@H](C)C[C@H](C)C(=O)[O-])O4)O3)O[C@]3(O[C@@H]([C@H]4O[C@@](O)(CO)[C@H](C)C[C@@H]4C)C[C@@H]3C)[C@@H]2C)O[C@@H]1C (stereo partly drawn) ?
mid value

Likewise for "COc1ccccc1[C@H](c1cccc2ccccc12)[C@@](C)(C#N)C(=O)N1CCC(c2cccc(C(F)(F)F)c2)CC1" ?
mid value

----------
# System: SEM cells
# assay-summary: cell viability relative to DMSO control; higher = less cytotoxic
# reported-conditions: HPLM + 10% dialyzed FBS; 48 h; 1.71 µM
measured-endpoint: cell viability (%)
The reply should be a number in %, with the unit left off.

CCn1nnc2c(N3CCOCC3)nc(-c3ccc(NC(=O)Nc4ccc(C(=O)N5CCN(C)CC5)cc4)cc3)nc21; 54.3
CC(C)c1onc(-c2c(Cl)cccc2Cl)c1COc1ccc(/C=C/c2cccc(C(=O)O)c2)c(Cl)c1; 116
COc1cc(NCc2ccc3nc(N)nc(N)c3c2C)cc(OC)c1OC; 38.1
Cc1cc(Nc2cc(N3CCN(C)CC3)nc(/C=C/c3ccccc3)n2)n[nH]1; 6.67
CC(C)(N)c1ccc(-c2nc3ccccc3nc2-c2ccccc2)cc1; 6.11
CNc1nc(-c2ccc3c(N)n[nH]c3c2)cc(N2C[C@@H](C(=O)NC3CCCCC3)CC[C@H]2C)n1; 57.3
C[C@]1(O)CC(C1)C2=NC(=C3[N]2C=CN=C3N)C4=CC5=C(C=C4)C=CC(=N5)C6=CC=CC=C6 (stereo not drawn); 47.2

What does the data say about its cell viability? Entry: "CC(=O)OCC(=O)[C@@]1(O)CC[C@H]2[C@@H]3CCC/4=C/C(=O)CC[C@]4(C)[C@H]3C(=O)C[C@]12C"
51.8
